# Test system: HIV-1 (strain LAV-1)
# TEST_DESCRIPTION: microbe, parasite or virus in culture
# Format: cell-based
# CONDITIONS_USED: Human immunodeficiency virus 1, PBMC, human PBM cells infected with HIV-1 (strain LAV); read-out: Ant-HIV-1 in PBM cells EC50
Entries annotated with measured EC50
Lab book: enter the figure in µM, no units written.

• O=C1c2c(O)cc(O)cc2O[C@H](c2ccc(O)cc2)[C@H]1c1c(O)cc(O)c2c(=O)cc(-c3ccc(O)c(O)c3)oc12 = 5.7

Prompt: # EC50 lookup, item O=C1CC(c2ccc(O)cc2)Oc2c1c(O)cc(O)c2C1C(=O)c2c(O)cc(O)cc2OC1c1ccc(O)cc1 (centres unmarked)
Response: 38

Prompt: And O=c1cc(-c2ccc(Oc3c(O)cc4oc(-c5ccc(O)cc5)cc(=O)c4c3O)cc2)oc2cc(O)cc(O)c12 ?
Response: 4.1

----------
Entries annotated with measured IC50
# TEST_DESCRIPTION: in vitro
# CONDITIONS_USED: dog, CPE Inhibition IC50 (cytotoxic), Influenza B test
Lab book: enter the figure in µg/mL, no units written.

Known results for compounds:
- O=C1CC(c2ccc(O)cc2)Oc2cc(O)c(-c3c(O)cc4c(c3O)C(=O)CC(c3ccc(O)cc3)O4)c(O)c21 (stereo not drawn): 15
- O=c1cc(-c2ccc(O)c(-c3c(O)cc(O)c4c(=O)cc(-c5ccc(O)cc5)oc34)c2)oc2cc(O)cc(O)c12: 100
- O=C1CC(c2ccc(O)cc2)Oc2cc(O)c(-c3c(O)cc(O)c4c3OC(c3ccc(O)cc3)CC4=O)c(O)c21 (stereo not drawn): 38

From here, focus on the item given below.
Prompt: # IC50 lookup, item O=c1cc(-c2ccc(Oc3c(O)cc4oc(-c5ccc(O)cc5)cc(=O)c4c3O)cc2)oc2cc(O)cc(O)c12
Response: 1.2

----------
Entries annotated with measured IC50
# TEST_DESCRIPTION: in vitro
# CONDITIONS_USED: dog, CPE Inhibition IC50 (cytotoxic), Influenza A (H3N2) test
Lab book: enter the figure in µg/mL, no units written.

• O=C1CC(c2ccc(O)cc2)Oc2cc(O)c(-c3c(O)cc(O)c4c3OC(c3ccc(O)cc3)CC4=O)c(O)c21 (stereo not drawn) = 24

Prompt: # IC50 lookup, item O=c1cc(-c2ccc(O)c(-c3c(O)cc4oc(-c5ccc(O)cc5)cc(=O)c4c3O)c2)oc2cc(O)cc(O)c12
Response: 32

----------
# Test system: Hepatitis B Virus (HBV)
# TEST_DESCRIPTION: HBV replication intermediates (RI, intracellular HBV DNA) in 2.2.15 cells
# Type: cell-based
# CONDITIONS_USED: 2.2.15 cells; read-out: EC50, HBV replication intermediates (RI) (intracellular DNA)
ASSAY_READOUT: EC50 (nM)
Lab book: enter the figure in nM, no units written.

Prompt: # EC50 lookup, item Nc1ccn([C@H]2CC[C@@H](CO)O2)c(=O)n1 [2′,3′-ddC, 2′,3′-dideoxycytosine, reference compound]
Response: 2400

----------
# Tested on: 2.2.15 cells
# TEST_DESCRIPTION: HBV cytotoxicity assay, neutral red dye uptake in 2.2.15 cells
# Format: cell-based
# CONDITIONS_USED: Homo sapiens, read-out: IC50 (toxicity, neutral red dye uptake)
Entries annotated with measured IC50
Lab book: enter the figure in µM, no units written.

Prompt: # IC50 lookup, item O=c1cc(-c2ccc(O)c(-c3c(O)cc4oc(-c5ccc(O)cc5)cc(=O)c4c3O)c2)oc2cc(O)cc(O)c12
Response: 337

Prompt: And Nc1nc2c(ncn2CCC(CO)CO)c(=O)[nH]1 [Penciclovir, penciclovir, reference compound] ?
Response: 433

Prompt: And Nc1ccn([C@@H]2CS[C@H](CO)O2)c(=O)n1 [Lamivudine (3TC), lamivudine, reference compound] ?
Response: 1790
